Reported inhibition at 48 h, 20 µM values follow for various compounds
Test: Cytotoxicity against HEK293T cells assessed as growth inhibition at 20 uM after 48 hrs by CCK8 assay relative to control
Assay type: cell-based, HEK-293T
Conditions: human, HEK293T cells; read-out: GI
Please state the figure in %; there is no need to write the unit.

Please review the following examples before continuing.
N#C/C(=C\c1ccccc1OS(=O)(=O)c1ccc(F)cc1)C(=O)Nc1nnc(Cc2cccc3ccccc23)s1 :: 15
N#C/C(=C\c1ccccc1OS(=O)(=O)c1ccc(F)cc1)C(=O)Nc1nnc(Cc2ccc(Cl)cc2)s1 :: 14
Cc1ccc(S(=O)(=O)Oc2ccccc2/C=C(\C#N)C(=O)Nc2nnc(Cc3cccc4ccccc34)s2)cc1 :: 23

// inhibition at 48 h, 20 µM lookup, key: "COc1ccc(Cc2nnc(NC(=O)/C(C#N)=C/c3ccccc3OS(=O)(=O)c3ccc(F)cc3)s2)cc1"
6

// inhibition at 48 h, 20 µM lookup, key: "COc1ccc(Cc2nnc(NC(=O)/C(C#N)=C/c3ccccc3OS(=O)(=O)c3ccc(Cl)cc3)s2)cc1"
34
